- Test system: ATP;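 note: ATP exposure 15 min at 22 °C before imaging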
- Measurement Protocol: switch fluorescence ratio, 500 uM ATP over buffer (Cy3 cluster intensity, sum of 5 cycles each) (fold (ratio)); higher = stronger signal-on switching upon ATP binding; sequences stand for … in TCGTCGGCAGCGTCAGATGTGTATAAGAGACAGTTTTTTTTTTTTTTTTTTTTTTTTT…TC
- Experimental Setup: aptamer strand: ATP DNA aptamer (quencher-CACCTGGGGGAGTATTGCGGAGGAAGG + anchor), 100 nM annealed; ATP concentration: 500 uM
Record condition met whenever switch fluorescence ratio is at 1 or higher; record condition not met when lower.

Sequence Code | Class
TTGGTGGTCT | condition met
GACGTACAAC | condition met
ATGCCGGGGT | condition met
GCCGTTTTTT | condition not met
CGAGGTTGAC | condition met
TTATGATAGC | condition not met
GGGTACGGTG | condition met
TGACCGAAGT | condition met
CAGTGATGAG | condition met

Taken from the supplement of paper PMC10126150.
